Test system: CCRF-CEM
method-notes: NCI tumour cell line growth inhibition, 48 h
The source made the active and inactive calls. Cut-off read from the data, not from the text of the source: active = GI50 up to about 1.1 µM and inactive = higher.
Outcome (select one): active, inactive

Answered cases to consult:
| molecule | discrete-label |
| --- | --- |
| O=C(CC1C=Cc2ccccc2N1C(=O)c1ccccc1)c1ccccc1 (stereo not given) | inactive |
| OC1c2c(ccc3c2CCC3)CC12Cc1ccccc1C2 (stereo not given) | inactive |
| COc1ccc(C[C@H]2NC[C@H](OC(C)=O)[C@H]2OC(C)=O)cc1 | active |
| O=S(=O)(O)c1ccc2c(/N=N\c3cccc4ccccc34)c(O)c(S(=O)(=O)O)cc2c1 | inactive |
| COP(=N[Si](C)(C)C)(OC)OC | inactive |
| CCOC(=O)[C@@H]1ON2OC(OC3CCCC3(c3ccccc3)c3ccccc3)C(OC(C)=O)[C@H]3OC(=O)[C@@H]1C32 (stereo not given in full) | inactive |
| O=C1N(c2ccccc2)N=C2c3ccncc3C3=NN(c4ccccc4)C(=O)C123 (stereo not given) | inactive |
| C/C(Cc1ccccc1)=N\NC(N)=S | inactive |

q: Per the assay record, what outcome was assigned to CCCCCCCCCCCCCCCC(=O)OCC1OC(n2cc(F)c(=O)[nH]c2=O)C(N)C(O)C1O (stereo not given) ?
a: inactive

q: Per the assay record, what outcome was assigned to N#C[BH2-][n+]1ccc(C(=O)NNCC(F)(F)F)cc1 ?
a: inactive

q: Per the assay record, what outcome was assigned to O=c1c(NCc2ccccc2)c(C2(c3ccccc3F)SCCCS2)c1=O ?
a: inactive

q: Per the assay record, what outcome was assigned to CO/C(=N\N=C\c1ccc(C(F)(F)F)cc1)c1ccncc1 ?
a: inactive

q: Per the assay record, what outcome was assigned to Cc1ccc(C)c(NC(=O)C(=O)C(C(=O)c2ccc3ccccc3c2)C2OC(=O)c3ccccc32)c1 (stereo not given) ?
a: inactive

q: Per the assay record, what outcome was assigned to OCCSCc1cc2c(O)c(c1)Cc1cc(CSCCO)cc(c1O)Cc1cc(CSCCO)cc(c1O)Cc1cc(CSCCO)cc(c1O)C2 ?
a: inactive

---

Consider the following molecules and their measured GI50 readings.
System: HOP-18
method-notes: NCI tumour cell line growth inhibition, 48 h
Activity calls are given as the source filed them. Rule as the data show it: active = GI50 up to about 1.1 µM and inactive = higher.

| molecule | readout-value |
| --- | --- |
| NCCCNCc1c2ccccc2c(CNCCCN)c2ccccc12 | 25.1 µM (inactive) |

q: Please look up its GI50: Cc1ccc(NC(=O)c2cc3cc(/N=N/c4ccccc4C(=O)O)ccc3oc2=O)cc1
a: 32 µM (inactive)

---

Tested on: OVCAR-4
method-notes: NCI tumour cell line growth inhibition, 48 h
Active and inactive are the calls of the source. No stated cut-off is given here; in the data, active = GI50 up to about 1.1 µM and inactive = higher.
readout-label: GI50

Some solved cases for reference:
| compound | readout-value |
| --- | --- |
| O=C(Nn1cc(F)c(=O)[nH]c1=O)C12CC3CC(CC(C3)C1)C2 | 10.2 µM (inactive) |
| CC(=O)O[C@H]1C[C@]2(C)C(CCC3O[C@@]32C)[C@@]2(CC(c3ccoc3)OC2O)[C@@H]1C (stereo not given in full) | 41 µM (inactive) |
| CC1(C)CC(=O)c2c(nc(SSc3nc4c(c(-c5ccc(Br)cc5)c3C#N)C(=O)CC(C)(C)C4)c(C#N)c2-c2ccc(Br)cc2)C1 | > 10 µM (inactive) |
| CCCCCC/C=C1\CCC(CN2CCCC2)C1=O (stereo not given) | 22.8 µM (inactive) |
| O=C(N/C(=C\c1ccc(/C=C(\NC(=O)c2ccccc2)c2nc3c(O)nc(S)nc3[nH]2)cc1)c1nc2c(O)nc(S)nc2[nH]1)c1ccccc1 | 25.9 µM (inactive) |
| NC(N)=NCc1ccc2c(c1)OCO2 | > 100 µM (inactive) |
| Nc1ncnc2c1ncc(=O)n2C1CC(O)C(CO)O1 (stereo not given) | > 100 µM (inactive) |
| O=C(Nc1cccc(C(F)(F)F)c1)C(=O)C1NC(=S)NC1=O (stereo not given) | > 100 µM (inactive) |

q: Please look up its GI50: COc1ccc(NC2C(=O)C3(C)CCC2C3(C)C)cc1 (stereo not given)
a: 72.9 µM (inactive)

q: Please look up its GI50: O=C1/C(=C\c2cccc(Oc3ccccc3)c2)SC(c2ccccc2)N1Cc1ccccc1 (stereo not given)
a: 31.6 µM (inactive)

---

Consider the following compounds and their measured GI50 readings.
System: MDA-MB-231
method-notes: NCI tumour cell line growth inhibition, 48 h
Calls of active or inactive are those of the source. Rule as the data show it: active = GI50 up to about 1.1 µM and inactive = higher.

| compound | readout-value |
| --- | --- |
| CCOC(=O)c1nc2ccc(C(F)(F)F)cc2nc1Oc1ccc(OC)cc1 | > 100 µM (inactive) |
| Cc1oc2ccccc2c(=O)c1Cn1nnc2ccccc21 | 91.4 µM (inactive) |
| Clc1ccc(CSCc2ccc(Cl)cc2Cl)c(Cl)c1 | > 100 µM (inactive) |
| CN(C)c1ccc(/C=C/c2ccnc3ccccc23)cc1N | 4.04 µM (inactive) |
| CC(=O)OC1COC(n2c(-c3ccc(Cl)cc3)cc(-c3ccccc3)c(C#N)c2=S)C(OC(C)=O)C1OC(C)=O (centres undefined) | 2.88 µM (inactive) |

q: Please look up its GI50: OC(c1cccnc1Cl)c1nc2ccccc2c2ccnc(Cl)c12 (centres undefined)
a: 7.82 µM (inactive)

q: Please look up its GI50: ClC(Cl)(Cl)C1CCOC1n1nc2ccccc2n1 (centres undefined)
a: > 100 µM (inactive)

q: Please look up its GI50: C=C1CC(O)C2C(=C)C(=O)OC2C2C(C)C(=O)CC12 (centres undefined)
a: 20.4 µM (inactive)

q: Please look up its GI50: COC1=C(C)C(=O)c2c(c(COC(N)=O)c3n2CC2C3N2C)C1=O (centres undefined)
a: 0.168 µM (active)

---

Test system: TK-10
method-notes: NCI tumour cell line growth inhibition, 48 h
Activity calls are given as the source filed them. Rule as the data show it: active = GI50 up to about 1.1 µM and inactive = higher.
readout-label: GI50

Some solved cases for reference:
| compound | test-target | GI50 |
| --- | --- | --- |
| CC(Cl)(CCC(Cl)C(C)(C)Cl)C(=O)CBr (stereo unspecified) | TK-10 | 11.8 µM (inactive) |
| CN(C)c1nnnn1-c1c(N)n(C)c(=O)n(C)c1=O | TK-10 | > 100 µM (inactive) |

q: Please look up its GI50: CC1(C)CC(=O)c2c(nc(SSc3nc4c(c(-c5ccc(Br)cc5)c3C#N)C(=O)CC(C)(C)C4)c(C#N)c2-c2ccc(Br)cc2)C1
a: > 10 µM (inactive)

q: Please look up its GI50: O[C@@]1(C#Cc2ccc3c(c2)OCO3)CCC[C@H]1NCc1ccccc1
a: 27.7 µM (inactive)

q: Please look up its GI50: CCN1c2ccccc2NC(=S)c2c(-c3ccccc3)n[nH]c21
a: 48.4 µM (inactive)

q: Please look up its GI50: CCC(C)CNC1=C(NC(C)=O)C(=O)c2ccccc2C1=O (stereo unspecified)
a: > 100 µM (inactive)

---

Tested on: HOP-62
method-notes: NCI tumour cell line growth inhibition, 48 h
Activity calls are given as the source filed them. Rule as the data show it: active = GI50 up to about 1.1 µM and inactive = higher.
Outcome (select one): label 1 (active), label 0 (inactive)

| compound | discrete-label |
| --- | --- |
| Cc1ccc(NC(=O)CCc2nc(N)nc(N)c2-c2ccccc2)cc1C | label 0 |
| Cc1cccc(NC(=O)CC2C(=O)Nc3ccccc3S2(=O)=O)c1C (centres undefined) | label 0 |
| COc1ccc(C[C@H]2NC[C@H](OC(C)=O)[C@H]2OC(C)=O)cc1 | label 1 |
| O=[N+]([O-])/C(Cl)=C(\Nc1ccccc1)C(Cl)=C(Cl)Cl | label 0 |
| CCOC(=N)/C(=C1\OC(=N)C(c2ccc(Cl)cc2)=C1O)c1ccc(Cl)cc1 | label 0 |
| COc1ccc(NC2C(=O)C3(C)CCC2C3(C)C)cc1 (centres undefined) | label 0 |
| O=S(=O)(O)c1ccc2c(/N=N\c3cccc4ccccc34)c(O)c(S(=O)(=O)O)cc2c1 | label 0 |
| Oc1c2c(nc3cc4c(cc13)OCO4)-c1ccccc1CC2 | label 0 |

Shift focus to the following entry.
q: Per the assay record, what outcome was assigned to NCC(Cc1ccccc1)P(=O)(O)O (centres undefined) ?
a: label 0

---

Tested on: EKVX
method-notes: NCI tumour cell line growth inhibition, 48 h
Activity calls are given as the source filed them. Rule as the data show it: active = GI50 up to about 1.1 µM and inactive = higher.
readout-label: GI50

Some solved cases for reference:
| molecule | GI50 |
| --- | --- |
| C=C(C)[C@@H]1CC[C@]2(C(=O)OC3OC(COC4OC(CO)C(OC5OC(C)C(O)C(O)C5O)C(O)C4O)C(O)C(O)C3O)CC[C@]3(C)[C@H](CC[C@@H]4[C@@]5(C)CC[C@H](O)[C@@](C)(CO)[C@@H]5CC[C@]43C)[C@@H]12 (stereo partly drawn) | 2.2 µM (inactive) |
| CC(C)Oc1c(N(Cc2ccccc2)c2ccccc2C2SCCCS2)c(=O)c1=O | 4.51 µM (inactive) |
| C(=C\c1ccccc1)/C=N/c1nc2cc3sc(/N=C/C=C/c4ccccc4)nc3cc2s1 | 73.1 µM (inactive) |
| Cn1c(=O)c(/N=N/c2c(=O)n(C)c(=O)n3c2[nH]c2ccccc23)c2[nH]c3ccccc3n2c1=O | > 100 µM (inactive) |
| CCCc1[nH]nc(C(N)=O)c1/N=N/N(C)C | 26.3 µM (inactive) |
| O=C(N/C(=C\c1ccc(/C=C(\NC(=O)c2ccccc2)c2nc3c(O)nc(S)nc3[nH]2)cc1)c1nc2c(O)nc(S)nc2[nH]1)c1ccccc1 | > 100 µM (inactive) |

q: Please look up its GI50: NNC(N)Nc1ccccc1 (stereo not drawn)
a: > 100 µM (inactive)

q: Please look up its GI50: COc1cc(C(C)O)c[n+](CCC2CNc3ccccc32)c1 (stereo not drawn)
a: 33 µM (inactive)
